Data origin: ChEMBL document CHEMBL3351749

- Test system: HepG2
- experiment: Cytotoxicity against human HepG2 cells assessed as cell survival after 48 hrs by MTT assay
- Type: functional, cell-based
- condition details: HepG2, 48 h
pIC50: −log10 of the molar value.
The following molecules are listed with their measured pIC50 values.
measurement type: pIC50

1) COc1cccc2c3c([nH]c12)C(C)(C)[C@@H]1CC[C@]2(C)[C@H](CC=C4[C@@H]5[C@@H](C)[C@H](C)CC[C@]5(C(=O)O)CC[C@]42C)[C@@]1(C)C3    < 4.00
2) COC(=O)[C@]12CC[C@@H](C)[C@H](C)[C@H]1C1=CC[C@@H]3[C@@]4(C)Cc5c([nH]c6ccc(Br)cc56)C(C)(C)[C@@H]4CC[C@@]3(C)[C@]1(C)CC2    < 4.00
3) CCOc1ccc2[nH]c3c(c2c1)C[C@]1(C)[C@H]2CC=C4[C@@H]5[C@@H](C)[C@H](C)CC[C@]5(C(=O)OC)CC[C@@]4(C)[C@]2(C)CC[C@H]1C3(C)C    < 4.00
